- assay_summary: probe aWnt5a binding to arrayed compounds – biochemical, biotinylated probe, 635/667 nm fluorescence, primary screen (AID 1113);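 further: score merges 667 nm fluorescence intensity with signal-to-noise per printed feature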
- condition: small-molecule microarray, higher = more signal
Everything with composite z-score lower than 0.004 is Not satisfied; everything else, including exactly 0.004, is Satisfied.

>>> class("CC(C)C(CO)N1C(=O)[C@@H]2C3C(=O)OCCC/C=C\\[C@H]3OC23C=CCN(Cc2ccccc2)C(=O)[C@@H]13 (stereo partly drawn)")
"Not satisfied"
>>> class("C[C@@H]1ON(c2ccccc2)[C@H](c2ccccc2)[C@H]1C(=O)O")
"Satisfied"
>>> class("CN(C)CCCC[C@@H]1NC(=O)[C@@H]2C[C@H](C(=O)NCCCCCN)[C@H](c3cccc(OCCO)c3)N2C1=O")
"Not satisfied"
>>> class("O=C1C[C@@](C(=O)O)(c2ccc([N+](=O)[O-])cc2)[C@@H](c2ccc(CO)cc2)N1C1CCCCC1")
"Not satisfied"
>>> class("CC(C)=CCCC(C)=CC(O)C1C=CC2C(=O)NC(=O)C2N1Nc1ccc(Cl)cc1Cl (stereo not drawn)")
"Not satisfied"

Ask | Check the entry `O=C1c2ccccc2[C@@]2(Cc3ccccc3N(Cc3ccccc3)C2=O)[C@H](c2ccc(CO)cc2)N1Cc1ccccc1Cl` : does composite z-score equal or exceed 0.004?
Reply | Not satisfied

Ask | For this compound, is measured composite z-score 0.004 or higher? `CCCN1C(=O)[C@@]2(c3ccc([N+](=O)[O-])cc3)CC(=O)N(CC34CC5CC(CC(C5)C3)C4)[C@@H]2c2ccc(CO)cc21`
Reply | Not satisfied

Ask | // inclusive: composite z-score at least 0.004? input: COc1ccc(NN2C(C(O)c3ccc(I)cc3)C=CC3C(=O)N(C4CCCCC4)C(=O)C32)cc1 (stereo not drawn)
Reply | Satisfied

Ask | Exam item: decide whether the reported composite z-score for `Cc1ccc(F)cc1S(=O)(=O)N[C@H]1CCN(Cc2ccc(OC(C)C)cc2)C1` is at least 0.004.
Reply | Not satisfied

Ask | Say whether `NC(=O)NCC#Cc1ccc2c(c1)[C@]1(C(=O)N2)[C@H](c2ccc(OCCO)cc2)N2[C@H](c3ccccc3)[C@H](c3ccccc3)OC(=O)[C@H]2[C@@H]1C(=O)NC[C@H](O)c1ccccc1` shows composite z-score of 0.004 or more.
Reply | Not satisfied

Ask | Does composite z-score meet or surpass 0.004 for `C=C(COC)C(=O)CC[C@@H](OC(C)=O)c1ccccc1OCCO` ?
Reply | Not satisfied

Ask | Form field: composite z-score at least 0.004? Entry: `Cc1ccc(S[C@]2(C(=O)NCC(F)(F)F)CC(=O)N(Cc3ccccc3C(F)(F)F)[C@@H]2c2ccc(CO)cc2)cc1`
Reply | Not satisfied

The measured values listed here are drawn from PubChem BioAssay.
